target: muscarinic acetylcholine receptors; assay: Inhibition of specific binding of 3H-Oxotremorine-M (3H-Oxo) to rat cortex membranes; conditions: rat cortex homogenate, 1.0 nM 3H-Oxotremorine, 30 min at 25° C.
# thresholds on IC50 define classes: class 0 = under 3 nM, class 1 = from 3 nM up to 50 nM, class 2 = 50 nM and over

C(#Cc1cccnc1)COc1nsnc1OC1CN2CCC1C2 (stereo not drawn)
class 0
CCC(C#Cc1cccc(OC)c1)Oc1nsnc1OC1CN2CCC1C2 (stereo not drawn)
class 2
C(#Cc1ccccc1)COc1nsnc1OC1CN2CCC1C2 (stereo not drawn)
class 1
COCCOc1nsnc1OC1CN2CCC1C2 (stereo not drawn)
class 1
C(#Cc1cccs1)COc1nsnc1O[C@H]1CN2CC[C@@H]1C2
class 0

Class label required: Fc1ccc(C#CCOc2nsnc2OC2CN3CCC2C3)cc1 (stereo not drawn)
class 1

Class label required: Fc1ccc(CSc2nsnc2OC2CN3CCC2C3)c(F)c1 (stereo not drawn)
class 2

Class label required: C(#Cc1ccccn1)COc1nsnc1OC1CN2CCC1C2 (stereo not drawn)
class 0

Class label required: FC(F)(F)CCCOc1nsnc1OC1CN2CCC1C2 (stereo not drawn)
class 1

* * *

Structures can show the parent of a compound that is named as a salt.
Catalogue of melting point readings, one per entry.

Fc1ccc(COc2nsnc2OC2CN3CCC2C3)cc1 (centres unmarked) (as salt: oxalate)
144 to 145 °C
Fc1cccc(C#CCOc2nsnc2OC2CN3CCC2C3)c1 (centres unmarked) (as salt: oxalate)
175 to 177 °C
N#CCCSc1nsnc1OC1CN2CCC1C2 (centres unmarked) (as salt: oxalate)
168 to 169 °C
FCCSc1nsnc1OC1CN2CCC1C2 (centres unmarked) (as salt: oxalate)
131 to 133 °C
FC(F)(F)CCCSc1nsnc1OC1CN2CCC1C2 (centres unmarked) (as salt: oxalate)
114 to 115 °C

Entry C(CC1CC1)Oc1nsnc1OC1CN2CCC1C2 (centres unmarked) (as salt: oxalate) : reported melting point = ?
132 to 133 °C

Entry FC(F)(F)c1cccc(C#CCOc2nsnc2OC2CN3CCC2C3)c1 (centres unmarked) (as salt: oxalate) : reported melting point = ?
131 to 135 °C

Entry C1CC(COc2nsnc2OC2CN3CCC2C3)C1 (centres unmarked) (as salt: oxalate) : reported melting point = ?
96 to 99 °C

* * *

molecular target: muscarinic receptors (M1-site, pirenzepine sensitive site) (Rattus norvegicus, UniProt P08482); construct: Fresh cortex (0.1-1 g) from male Wistar rats (150-200 g) is homogenized; assay: Inhibition of 3H-PRZ (pirenzepine, [N-methyl-3H]) binding to rat cerebral cortex membranes; conditions: 1.0 nM 3H-Pirenzepine, 60 min at 20° C.
Sequence (P08482 whole entry): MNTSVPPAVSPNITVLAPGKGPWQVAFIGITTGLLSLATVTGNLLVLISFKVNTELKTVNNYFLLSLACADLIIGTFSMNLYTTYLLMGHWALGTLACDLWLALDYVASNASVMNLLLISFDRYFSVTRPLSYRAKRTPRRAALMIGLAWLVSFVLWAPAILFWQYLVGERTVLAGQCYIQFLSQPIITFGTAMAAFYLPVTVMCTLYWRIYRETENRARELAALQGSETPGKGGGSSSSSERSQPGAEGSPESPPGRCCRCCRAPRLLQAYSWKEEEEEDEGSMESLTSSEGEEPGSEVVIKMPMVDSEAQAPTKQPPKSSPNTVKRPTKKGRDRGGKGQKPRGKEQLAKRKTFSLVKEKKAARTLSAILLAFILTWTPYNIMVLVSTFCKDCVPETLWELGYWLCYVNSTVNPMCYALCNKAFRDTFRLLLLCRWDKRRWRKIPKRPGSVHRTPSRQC
MEASURED QUANTITY: IC50 (nM)
Quick note: give the figure in nM, leave out the unit.

# annotated cases, reported IC50 shown
COc1cccc(C#CC(C)Oc2nsnc2OC2CN3CCC2C3)c1 (stereo not drawn)
48
FC(F)(F)CCSc1nsnc1OC1CN2CCC1C2 (stereo not drawn)
9.1
CCC(C#Cc1cccc(OC)c1)Oc1nsnc1OC1CN2CCC1C2 (stereo not drawn)
53
CCCSc1nsnc1OC1CN2CCC1C2 (stereo not drawn)
4.2

Entry Fc1ccc(C#CCOc2nsnc2OC2CN3CCC2C3)cc1 (stereo not drawn) : reported IC50 = ?
8.3

Entry FC(F)(F)c1cccc(C#CCOc2nsnc2OC2CN3CCC2C3)c1 (stereo not drawn) : reported IC50 = ?
11

Entry COCCOc1nsnc1OC1CN2CCC1C2 (stereo not drawn) : reported IC50 = ?
44

Entry CSCCOc1nsnc1OC1CN2CCC1C2 (stereo not drawn) : reported IC50 = ?
29

Entry COc1cccc(C#CC(Oc2nsnc2OC2CN3CCC2C3)C(C)C)c1 (stereo not drawn) : reported IC50 = ?
56

* * *

Catalogue of pIC50 readings, one per entry.
target: muscarinic acetylcholine receptors; test: Inhibition of specific binding of 3H-Oxotremorine-M (3H-Oxo) to rat cortex membranes; settings: rat cortex homogenate, 1.0 nM 3H-Oxotremorine, 30 min at 25° C.
For clarity, pIC50 is expressed as the negative log10 of concentration in mol/L.

# annotated cases, reported pIC50 shown
CCCCSc1nsnc1OC1CN2CCC1C2 (stereo not shown)
8.80
CC=CCOc1nsnc1OC1CN2CCC1C2 (stereo not shown)
8.28
FC(F)(F)COc1nsnc1OC1CN2CCC1C2 (stereo not shown)
8.74
CC(C#Cc1ccc(F)cc1)=CCOc1nsnc1OC1CN2CCC1C2 (stereo not shown) [Compound 21]
6.52
CC(C)=CCOc1nsnc1OC1CN2CCC1C2 (stereo not shown)
8.00

Return pIC50 measured with muscarinic acetylcholine receptors given this compound: CCCSc1nsnc1OC1CN2CCC1C2 (stereo not shown)
8.85

Return pIC50 measured with muscarinic acetylcholine receptors given this compound: Fc1cccc(C#CCOc2nsnc2OC2CN3CCC2C3)c1 (stereo not shown)
8.26

Return pIC50 measured with muscarinic acetylcholine receptors given this compound: N#CCCSc1nsnc1OC1CN2CCC1C2 (stereo not shown)
8.51

Return pIC50 measured with muscarinic acetylcholine receptors given this compound: CSCCOc1nsnc1OC1CN2CCC1C2 (stereo not shown)
8.43

Return pIC50 measured with muscarinic acetylcholine receptors given this compound: Clc1ccc(C#CCOc2nsnc2OC2CN3CCC2C3)cc1 (stereo not shown)
7.10

* * *

Catalogue of melting point readings, one per entry.
Where a name gives a salt, the structure may show the parent alone.

# annotated cases, reported melting point shown
C(#Cc1ccccn1)COc1nsnc1OC1CN2CCC1C2 (stereo not drawn) (as salt: oxalate)
158 to 160 °C
COc1cccc(C#CCOc2nsnc2OC2CN3CCC2C3)c1 (stereo not drawn) (as salt: oxalate)
142 to 143 °C
C(#Cc1ccccc1)COc1nsnc1OC1CN2CCC1C2 (stereo not drawn) (as salt: oxalate)
158 to 159 °C

Entry CCC(C#Cc1cccc(OC)c1)Oc1nsnc1OC1CN2CCC1C2 (stereo not drawn) (as salt: oxalate) : reported melting point = ?
98 to 101 °C

Entry CCCSc1nsnc1OC1CN2CCC1C2 (stereo not drawn) (as salt: oxalate) : reported melting point = ?
136 to 137 °C

Entry COCCOc1nsnc1OC1CN2CCC1C2 (stereo not drawn) (as salt: oxalate) : reported melting point = ?
139 to 141 °C

* * *

Counter-ions that a name gives are not always drawn.
Catalogue of melting point readings, one per entry.

# annotated cases, reported melting point shown
COc1cccc(C#CC(Oc2nsnc2OC2CN3CCC2C3)C(C)C)c1 (centres unmarked) (as salt: oxalate)
144 to 147 °C
Clc1ccc(C#CCOc2nsnc2OC2CN3CCC2C3)cc1 (centres unmarked) (as salt: oxalate)
118 to 122 °C
CSCCOc1nsnc1OC1CN2CCC1C2 (centres unmarked) (as salt: oxalate)
117 to 119 °C
N#Cc1ccc(CSc2nsnc2OC2CN3CCC2C3)cc1 (centres unmarked) (as salt: oxalate)
196 to 197 °C
CC(C)=CCOc1nsnc1OC1CN2CCC1C2 (centres unmarked) (as salt: oxalate)
112 to 115 °C

Entry Fc1ccc(CSc2nsnc2OC2CN3CCC2C3)c(F)c1 (centres unmarked) (as salt: oxalate) : reported melting point = ?
98 to 100 °C

Entry CC(C#Cc1ccc(F)cc1)=CCOc1nsnc1OC1CN2CCC1C2 (centres unmarked) : reported melting point = ?
82 to 84 °C

Entry FC(F)(F)COc1nsnc1OC1CN2CCC1C2 (centres unmarked) (as salt: oxalate) : reported melting point = ?
153 to 156 °C

* * *

Structures can show the parent of a compound that is named as a salt.
MEASURED QUANTITY: melting point

# annotated cases, reported melting point shown
Fc1cc(C(F)(F)F)ccc1COc1nsnc1OC1CN2CCC1C2 (centres unmarked) (as salt: oxalate) [Compound 16]
112 to 114 °C
FC(F)(F)CCCOc1nsnc1OC1CN2CCC1C2 (centres unmarked) (as salt: oxalate) [Compound 15]
135 to 137 °C
C(#Cc1cccnc1)COc1nsnc1OC1CN2CCC1C2 (centres unmarked) (as salt: oxalate) [Compound 23]
136 to 139 °C
C(#Cc1ccoc1)COc1nsnc1OC1CN2CCC1C2 (centres unmarked) (as salt: oxalate) [Compound 26]
146 to 148 °C
COc1cccc(C#CC(C)Oc2nsnc2OC2CN3CCC2C3)c1 (centres unmarked) (as salt: oxalate) [Compound 17]
102 to 103 °C
CC#CCOc1nsnc1OC1CN2CCC1C2 (centres unmarked) (as salt: oxalate) [Compound 11]
194 to 196 °C

Entry CC=CCOc1nsnc1OC1CN2CCC1C2 (centres unmarked) (as salt: oxalate) [Compound 10] : reported melting point = ?
129 to 131 °C

Entry FC(F)(F)Oc1ccc(COc2nsnc2OC2CN3CCC2C3)cc1 (centres unmarked) (as salt: oxalate) [Compound 14] : reported melting point = ?
116 to 119 °C

* * *

biological target: muscarinic acetylcholine receptors; assay: Inhibition of specific binding of 3H-Oxotremorine-M (3H-Oxo) to rat cortex membranes; details: rat cortex homogenate, 1.0 nM 3H-Oxotremorine, 30 min at 25° C.
Label TRUE when IC50 < 50 nM; otherwise FALSE.

Illustrative cases are given below, each with its answer.
C(#Cc1ccoc1)COc1nsnc1OC1CN2CCC1C2 (stereo not drawn)
TRUE
CC#CCOc1nsnc1OC1CN2CCC1C2 (stereo not drawn)
TRUE
Fc1cc(C(F)(F)F)ccc1COc1nsnc1OC1CN2CCC1C2 (stereo not drawn)
FALSE
COc1cccc(C#CC(C)Oc2nsnc2OC2CN3CCC2C3)c1 (stereo not drawn)
FALSE
COc1cccc(C#CC(Oc2nsnc2OC2CN3CCC2C3)C(C)C)c1 (stereo not drawn)
FALSE
Fc1ccc(COc2nsnc2OC2CN3CCC2C3)cc1 (stereo not drawn)
TRUE
C(#Cc1ccsc1)COc1nsnc1OC1CN2CCC1C2 (stereo not drawn)
TRUE
FC(F)(F)C(F)(F)C(F)(F)COc1nsnc1OC1CN2CCC1C2 (stereo not drawn)
TRUE
CC(C#Cc1ccc(F)cc1)=CCOc1nsnc1OC1CN2CCC1C2 (stereo not drawn) [Compound 22]
FALSE
FC(F)(F)CCSc1nsnc1OC1CN2CCC1C2 (stereo not drawn)
TRUE

# evaluate next
Does the reported IC50 of the following molecule sit strictly below 50 nM? C(CC1CC1)Oc1nsnc1OC1CN2CCC1C2 (stereo not drawn)
TRUE

Values from patent US6720342B2
